We begin with a simple list: items and their reported pIC50.
System: TNFα production by human leukocytes
Test: Inhibition of TNFα production by human leukocytes stimulated by lipopolysaccharid
Assay type: cell-based
Conditions: Leukocyte; LPS-stimulated human leukocytes in 75% human serum; TNFα by ELISA after 15-18 hours
pIC50: −log10 of the molar value.
PROPERTY: pIC50

line_notation=CN(C)c1nnc2n(Cc3ccc(C#N)cc3)c(=O)c3cc(Br)ccc3n12 property=pIC50 result_value=5.28
line_notation=Cc1ccc2c(c1)c(=O)n(Cc1ccc(C#N)cc1)c1nnc(N3CCCC3)n21 property=pIC50 result_value=5.37
line_notation=COc1ccc(Cn2c(=O)c3cc(C)ccc3n3c(N4CCCC4)nnc23)cc1OC property=pIC50 result_value=5.20

====

We begin with a simple list: items and their reported IC50.
Target: type 4 phosphodiesterases (PDE4)
Experiment: Inhibition of the phosphodiesterase (PDE4), enzymatic preparation from line U937
Conditions: PDE4 from cytosolic preparation of human cell line U937
PROPERTY: IC50

line_notation=Cc1ccc2c(c1)c(=S)n(CC=Cc1cccnc1)c1nnc(N(C)C)n21 target_or_system="type 4 phosphodiesterases (PDE4)" result_value="41 nM"
line_notation=CC(=O)Oc1ccc(Cn2c(=O)c3cc(Br)ccc3n3c(N4CCCC4)nnc23)cc1 target_or_system="type 4 phosphodiesterases (PDE4)" result_value="35 nM"
line_notation=COc1ccc(Cn2c(=O)c3cc(Br)ccc3n3c(N4CCCCCC4)nnc23)cc1OC target_or_system="type 4 phosphodiesterases (PDE4)" result_value="20 nM"
line_notation=COC(=O)Cc1ccc(Cn2c(=O)c3cc(Br)ccc3n3c(N4CCCC4)nnc23)cc1 target_or_system="type 4 phosphodiesterases (PDE4)" result_value="5 nM"
line_notation=Nc1ccc2c(c1)c(=O)n(Cc1ccccc1)c1nnc(N3CCCCCC3)n21 target_or_system="type 4 phosphodiesterases (PDE4)" result_value="75 nM"
line_notation=CNc1ccc2c(c1)c(=O)n(Cc1ccccc1)c1nnc(N3CCCC3)n21 target_or_system="type 4 phosphodiesterases (PDE4)" result_value="2 nM"
line_notation=O=c1c2cc(Br)ccc2n2c(N3CCCCCC3)nnc2n1C/C=C/c1cccnc1 target_or_system="type 4 phosphodiesterases (PDE4)" result_value="14 nM"
line_notation=O=c1c2cc(Br)ccc2n2c(N3CCCC3)nnc2n1Cc1ccc(O)cc1 target_or_system="type 4 phosphodiesterases (PDE4)" result_value="27 nM"
line_notation=N#Cc1ccc(Cn2c(=O)c3cc(Br)ccc3n3c(N4CCCCCC4)nnc23)cc1 target_or_system="type 4 phosphodiesterases (PDE4)" result_value="56 nM"
line_notation=O=c1c2cc(Cl)ccc2n2c(N3CCCCCC3)nnc2n1Cc1ccc(Cl)cc1 target_or_system="type 4 phosphodiesterases (PDE4)" result_value="80 nM"
line_notation=CCNc1ccc2c(c1)c(=O)n(Cc1ccccc1)c1nnc(N3CCCC3)n21 target_or_system="type 4 phosphodiesterases (PDE4)" result_value="180 nM"
line_notation=COc1ccc(C=CCn2c(=O)c3cc(Br)ccc3n3c(N4CCCC4)nnc23)cc1 target_or_system="type 4 phosphodiesterases (PDE4)" result_value="50 nM"
line_notation=O=c1c2cc(Br)ccc2n2c(N3CCCC3)nnc2n1CC=Cc1ccccc1 target_or_system="type 4 phosphodiesterases (PDE4)" result_value="14 nM"
line_notation=COC(=O)c1ccc(Cn2c(=O)c3cc(Br)ccc3n3c(N(C)C)nnc23)cc1 target_or_system="type 4 phosphodiesterases (PDE4)" result_value="16 nM"
line_notation=O=c1c2cc(Br)ccc2n2c(N3CCCC3)nnc2n1C/C=C/c1ccncc1 target_or_system="type 4 phosphodiesterases (PDE4)" result_value="53 nM"
line_notation=COc1ccc(Cn2c(=O)c3cc(Br)ccc3n3c(N4CCCCC4)nnc23)cc1OC target_or_system="type 4 phosphodiesterases (PDE4)" result_value="78 nM"
line_notation=O=c1c2cc(Cl)ccc2n2c(N3CCCCCC3)nnc2n1Cc1cccnc1 target_or_system="type 4 phosphodiesterases (PDE4)" result_value="410 nM"

====

We begin with a simple list: items and their reported melting point.
PROPERTY: melting point

molecule="Cc1ccc2c(c1)c(=S)n(CC=Cc1cccnc1)c1nnc(N(C)C)n21 [Compound 246]" property="melting point" result_value="133 °C"
molecule="Cc1ccc2c(c1)c(=O)n(C/C=C/c1ccccc1)c1nnc(N(C)C)n21 [Compound 103]" property="melting point" result_value="171 °C"
molecule="O=C(Cn1nc(N2CCCCCC2)n2c3ccc(Cl)cc3c(=O)nc12)c1ccc(Cl)cc1 [Compound 132]" property="melting point" result_value="238 °C"
molecule="O=c1c2ccccc2n2c(N3CCCCCC3)nnc2n1CC=Cc1ccccc1 [Compound 6]" property="melting point" result_value="144 °C"

====

Where a name gives a salt, the structure may show the parent alone.
We begin with a simple list: items and their reported melting point.
PROPERTY: melting point (°C)

molecule=O=c1c2cc(Br)ccc2n2c(N3CCCC3)nnc2n1Cc1ccc(O)cc1 result_value=288
molecule="O=c1nc2n(Cc3ccc4c(c3)OCO4)nc(N3CCCC3)n2c2ccc(Br)cc12 (hydrate or solvate)" result_value=234
molecule=O=c1c2cc(I)ccc2n2c(N3CCCC3)nnc2n1Cc1ccccc1 result_value=184
molecule=Cn1c(=O)c2cc(F)ccc2n2c(N3CCCCCC3)nnc12 result_value=136
molecule=O=c1c2cc(Cl)ccc2n2c(N3CCCCCC3)nnc2n1Cc1ccc(Cl)cc1 result_value=166
molecule=O=c1nc2n(Cc3ccc(Cl)cc3)nc(N3CCCCCC3)n2c2ccc(Cl)cc12 result_value=245
molecule="CCN(CC)CCn1c(=O)c2cc(Br)ccc2n2c(N3CCCC3)nnc12 (as salt: HCl)" result_value=215

====

We begin with a simple list: items and their reported melting point.
PROPERTY: melting point (°C)

line_notation=CN(C)c1nnc2n(Cc3ccc(C#N)cc3)c(=S)c3cc(Br)ccc3n12 property="melting point" measurement_qualifier== result_value=276
line_notation=O=c1c2cc(Br)ccc2n2c(N3CCSCC3)nnc2n1Cc1ccccc1 property="melting point" measurement_qualifier== result_value=235
line_notation=Nc1ccc2c(c1)c(=O)n(Cc1ccccc1)c1nnc(N3CCCC3)n21 property="melting point" measurement_qualifier== result_value=230
line_notation=O=c1c2cc(Br)ccc2n2c(N3CCCCCC3)nnc2n1CC=Cc1ccc(Cl)cc1 property="melting point" measurement_qualifier== result_value=176
line_notation=CN(C)c1nn(Cc2ccc(O)cc2)c2nc(=O)c3cc(Br)ccc3n12 property="melting point" measurement_qualifier== result_value=283
line_notation=Cn1c(=O)c2c(Cl)cccc2n2c(N3CCCCCC3)nnc12 property="melting point" measurement_qualifier=> result_value=275
line_notation=C#CCn1c(=O)c2cc(Br)ccc2n2c(N(C)C)nnc12 property="melting point" measurement_qualifier== result_value=234
line_notation=O=c1c2cc(Br)ccc2n2c(N3CCCC3)nnc2n1Cc1ccc(Cl)cc1 property="melting point" measurement_qualifier== result_value=105
line_notation=Cc1ccc2c(c1)c(=O)n(CC=Cc1cccnc1)c1nnc(N3CCSCC3)n21 property="melting point" measurement_qualifier== result_value=230
line_notation=CN(C)c1nnc2n(C/C=C/c3ccccc3)c(=O)c3cc(N)ccc3n12 property="melting point" measurement_qualifier== result_value=198
line_notation=O=C(Cn1c(=O)c2cc(Cl)ccc2n2c(N3CCCCCC3)nnc12)c1ccc(Cl)cc1 property="melting point" measurement_qualifier== result_value=190
line_notation=COc1ccc2c(c1)c(=O)n(Cc1ccccc1)c1nnc(N3CCCCCC3)n21 property="melting point" measurement_qualifier== result_value=153
line_notation=O=c1c2cc(Br)ccc2n2c(N3CCCCCC3)nnc2n1CC=Cc1ccncc1 property="melting point" measurement_qualifier== result_value=216
line_notation=CN(C)c1nn(CC=Cc2ccccc2)c2nc(=O)c3cc(Br)ccc3n12 property="melting point" measurement_qualifier== result_value=206
line_notation=O=c1c2cc(Br)ccc2n2c(N3CCCCCC3)nnc2n1Cc1cccnc1 property="melting point" measurement_qualifier== result_value=180
line_notation=Cc1ccc(Cn2nc(N3CCCCCC3)n3c4ccc(Cl)cc4c(=O)nc23)cc1 property="melting point" measurement_qualifier== result_value=182
line_notation=N#Cc1ccc(Cn2c(=O)c3cc(Br)ccc3n3c(N4CCCCCC4)nnc23)cc1 property="melting point" measurement_qualifier== result_value=190

====

We begin with a simple list: items and their reported melting point.
PROPERTY: melting point (°C)

molecule=Cc1ccc2c(c1)c(=O)n(Cc1cccnc1)c1nnc(N3CCCC3)n21 property="melting point" result_value=139
molecule="COC(=O)C(c1ccccc1)n1c(=O)c2cc(Br)ccc2n2c(N3CCCC3)nnc12 (stereo not shown)" property="melting point" result_value=184
molecule=COC(=O)c1ccc(Cn2c(=O)c3cc(Br)ccc3n3c(N(C)C)nnc23)cc1 property="melting point" result_value=197
molecule=O=c1nc2n(Cc3ccc(Cl)cc3)nc(N3CCCCCC3)n2c2ccc(Br)cc12 property="melting point" result_value=247
